Target: 14-3-3 protein epsilon (Homo sapiens)
Assay: Inhibition of recombinant 14-3-3epsilon protein (unknown origin) expression in Escherichia coli assessed as reduction in 14-3-3epsilon and histone H3 Ser10 interaction using human HT-29 cells lysates at 1 uM incubated for 1 hr by Western blotting based GST-pull down assay
Calls of active or inactive are those of the source. No cut-off for these calls is given here.
Could you please pick one outcome from this set? active, inactive

{"molecule": "C[C@H]1[C@H](C)CC[C@]2(C)CC[C@]3(C)C(=CC[C@@H]4[C@@]5(C)CC[C@H](O)C(C)(C)[C@@H]5CC[C@]43C)[C@H]12", "qualitative-label": "inactive"}
{"molecule": "CCCCCCCCCCCCC/C=C1/C(=O)O[C@H](C)[C@@H]1O", "qualitative-label": "inactive"}
{"molecule": "COc1c2c(cc3oc(C)cc(=O)c13)OC(C(C)(C)O[C@H]1O[C@@H](CO)[C@H](O)[C@@H](O)[C@@H]1O)C2 (some centres undefined)", "qualitative-label": "active"}

Attention now turns to another entry.
-- ask What is the recorded call for this molecule in the test? `CC1(C)CC[C@]2(C(=O)O)CC[C@]3(C)C(=CC[C@@H]4[C@@]5(C)CC[C@H](O)C(C)(C)[C@@H]5CC[C@]43C)[C@@H]2C1`
-- reply inactive
